test system: Human Th2 cells; test: Human primary Th2 cells, proliferation (MTS viability test); type: cell-based; details: human primary Th2 cells activated with anti-CD3 and anti-CD28 (Table 5); read-out: Prolif. IC50
pIC50: −log10 of the molar value.
Below, each entry is listed alongside its reported pIC50.
Value type: pIC50

smi=O=C(O)c1[nH]c2cc(Cl)ccc2c1NC(=O)C1CCNCC1 value_type=pIC50 result="< 5.00"
smi=CCOC(=O)c1[nH]c2cc(Cl)cc(Cl)c2c1N(C)C(=O)c1ccccc1 value_type=pIC50 result="< 5.00"

----------
test system: IL-5; assay: Human primary Th2 cells, IL-5 by ELISA; type: cell-based; conditions: human primary Th2 cells activated with anti-CD3 and anti-CD28 (Table 5)
pIC50: −log10 of the molar value.
Value type: pIC50

smi=CCOC(=O)c1[nH]c2cc(Cl)cc(Cl)c2c1N(C)C(=O)c1ccccc1 result="< 5.00"
smi=O=C(O)c1[nH]c2cc(Cl)ccc2c1NC(=O)C1CCNCC1 result="< 5.00"
